For each of the compounds below, state its combination Emax.
Test system: KELLY (Neuroblastoma)
assay.method.text: combination Emax (second highest fraction inhibited in the dose matrix, 72 h); higher = more inhibition; extreme values may be limits of the assay

### Prompt Entry Cc1cc2ncnn2cc1Nc1ncc2c(n1)n(C1CCOCC1)c(=O)n2C [AZD7648] + CN(C)CCCOc1ccc(-c2ccc3ncc4c(c3c2)n(C2CCOCC2)c(=O)n4C)cn1 [AZD0156] (first compound max 10 µM, 7x7, partner max 1 µM) : reported combination Emax = ?
### Response 0.878

### Prompt Endpoint output: combination Emax of CC1(C)CCC(CN2CCN(c3ccc(C(=O)NS(=O)(=O)c4ccc(NCC5CCOCC5)c([N+](=O)[O-])c4)c(Oc4cnc5[nH]ccc5c4)c3)CC2)=C(c2ccc(Cl)cc2)C1 [Venetoclax] + CS(=O)(=O)CCNCc1ccc(-c2ccc3ncnc(Nc4ccc(OCc5cccc(F)c5)c(Cl)c4)c3c2)o1 [Lapatinib] (first compound max 1 µM, 7x7, partner max 10 µM) . Value?
### Response 0.947

### Prompt # get_value(readout='combination Emax', item= COc1nnc2ccc(N3CCC(c4ccc(OCCN5CCN(C)C(=O)[C@H]5C)cc4)CC3)nn12 [AZD5153] + C=CCn1c(=O)c2cnc(Nc3ccc(N4CCN(C)CC4)cc3)nc2n1-c1cccc(C(C)(C)O)n1 [AZD1775] (first compound max 1 µM, partner max 1 µM) )
### Response 1

* * *

For each record, write down the corresponding combination Emax.
Test system: HuP-T4 (Pancreatic Carcinoma)
assay.method.text: combination Emax (second highest fraction inhibited in the dose matrix, 72 h); higher = more inhibition; extreme values may be limits of the assay
No unit in the answer, please; the number alone is enough.

### Prompt // lookup combination Emax for CC(=O)Nc1cccc(-n2c(=O)n(C3CC3)c(=O)c3c(Nc4ccc(I)cc4F)n(C)c(=O)c(C)c32)c1 [Trametinib] + Cc1nc(-c2cn3c(n2)-c2ccc(-c4cnn(C(C)(C)C(N)=O)c4)cc2OCC3)n(C(C)C)n1 [Taselisib] (first compound max 1 µM, 7x7, partner max 10 µM)
### Response 0.832

### Prompt Give the measured combination Emax of NC1(C(=O)N[C@@H](CCO)c2ccc(Cl)cc2)CCN(c2ncnc3[nH]ccc23)CC1 [Capivasertib] + COc1nnc2ccc(N3CCC(c4ccc(OCCN5CCN(C)C(=O)[C@H]5C)cc4)CC3)nn12 [AZD5153] (first compound max 10 µM, 7x7, partner max 1 µM) .
### Response 0.442

* * *

Test system: SK-ES-1 (Ewing's Sarcoma)
assay.method.text: combination Emax (second highest fraction inhibited in the dose matrix, 72 h); higher = more inhibition; extreme values may be limits of the assay
I'd be grateful if you could share measured combination Emax for these entries.
Keep it simple and answer with nothing but the number.

### Prompt Value lookup for combination Emax; key = Cc1cc2ncnn2cc1Nc1ncc2c(n1)n(C1CCOCC1)c(=O)n2C [AZD7648] + O=C(c1cc(Cc2n[nH]c(=O)c3ccccc23)ccc1F)N1CCN(C(=O)C2CC2)CC1 [Olaparib] (first compound max 10 µM, 7x7, partner max 10 µM)
### Response 0.923

### Prompt So what's the measured combination Emax for this one? C=CCn1c(=O)c2cnc(Nc3ccc(N4CCN(C)CC4)cc3)nc2n1-c1cccc(C(C)(C)O)n1 [AZD1775] + O=C(c1cc(Cc2n[nH]c(=O)c3ccccc23)ccc1F)N1CCN(C(=O)C2CC2)CC1 [Olaparib] (first compound max 1 µM, partner max 10 µM)
### Response 0.954

### Prompt Fill in: combination Emax of CCc1c2c(nc3ccc(O)cc13)-c1cc3c(c(=O)n1C2)COC(=O)[C@]3(O)CC [SN-38] + O=C(c1cc(Cc2n[nH]c(=O)c3ccccc23)ccc1F)N1CCN(C(=O)C2CC2)CC1 [Olaparib] (first compound max 0.3 µM, 7x7, partner max 10 µM) is ___
### Response 1

### Prompt Form field: reported combination Emax of NC1(C(=O)N[C@@H](CCO)c2ccc(Cl)cc2)CCN(c2ncnc3[nH]ccc23)CC1 [Capivasertib] + CC(=O)c1c(C)c2cnc(Nc3ccc(N4CCNCC4)cn3)nc2n(C2CCCC2)c1=O [Palbociclib] (first compound max 10 µM, 7x7, partner max 10 µM)
### Response 0.655

These entries and their values trace back to the supplement of paper PMC11061612.
